# Test system: Kuramochi cells labeled with mApple-H2B
# assay: IncuCyte Cell Proliferation Assay
# Type: cell-based
# measurement_context: 72 h
pIC50: −log10 of the molar value.
readout_type: pIC50

Q. Supply recorded pIC50 for CNC(=O)[C@@H](NC(=O)[C@@H]1CN(C(=O)c2cncs2)CC12CN(C(=O)[C@H]1CC1(C)C)C2)[C@@H](C)OCC1CCC2(CC1)CC2 here.
A. ≥ 6.30

Q. Supply recorded pIC50 for CNC(=O)C(NC(=O)[C@@H]1CN(C(=O)c2cncs2)CC12CN(C(=O)[C@H]1CC1(C)C)C2)c1ccc(C)nn1 (stereo partly drawn) here.
A. < 4.70

Q. Supply recorded pIC50 for C[C@@H](OCC12CCC(CC1)OC2)[C@H](NC(=O)[C@@H]1CN(C(=O)c2cncs2)CC12CN(C(=O)[C@H]1CC1(C)C)C2)C(=O)N1CCC[C@H](COC(F)(F)F)C1 here.
A. 5.30 to 6.30
